# assay-text: Cytotoxicity against dog MDCK cells assessed as reduction in cell viability incubated for 2 days by CCK-8 assay
# Format: toxicity, cell-based, Canis lupus familiaris
# protocol-conditions: time 2 day
outcome-measure: CC50 at 48 h

molecule	result
CCOC(=O)Cc1ccc2c(c1)[C@H](N1[C@@H]3COCCN3C(=O)c3c(O)c(=O)ccn31)c1ccccc1CO2	> 50 µM
O=C1c2c(O)c(=O)ccn2N([C@H]2c3ccccc3COc3c2ccc(F)c3F)[C@@H]2COCCN12	33.3 µM
O=C1c2c(O)c(=O)ccn2N([C@H]2c3ccccc3OCc3c(F)cccc32)[C@@H]2COCCN12	> 50 µM
O=C1c2c(O)c(=O)ccn2N([C@@H]2c3ccccc3SCc3c2ccc(F)c3F)[C@@H]2COCCN12 [BALOXAVIR]	9.3 µM

---

The reader will find reported CLint values listed item by item below.
# assay-text: Metabolic stability in human liver microsomes assessed as intrinsic clearance at 1 uM incubated for 60 mins in presence of NADPH by LC-MS/MS analysis
# Assay type: ADME, Microsome
# protocol-conditions: 1 h

smiles-repr	CLint
O=C1c2c(O)c(=O)ccn2N([C@@H]2c3ccccc3SCc3c2ccc(F)c3F)[C@@H]2COCCN12	7.6 µL/min/mg
O=C1c2c(O)c(=O)ccn2N([C@H]2c3ccc(F)cc3COc3ccccc32)[C@@H]2COCCN12	2 µL/min/mg
O=C(O)Cc1ccccc1Nc1c(Cl)cccc1Cl	246 µL/min/mg
O=C1c2c(O)c(=O)ccn2N([C@@H]2c3ccccc3OCc3c(Cl)cccc32)[C@@H]2COCCN12	9 µL/min/mg

---

# assay-text: Metabolic stability in mouse liver microsomes assessed as half life at 1 uM in presence of NADPH by LC-MS/MS analysis
# Type: ADME, Microsome
# protocol-conditions: time 60 min
outcome-measure: half-life at 1 µM (h)

compound	outcome-measure	output-unit	numeric-result
O=C1c2c(O)c(=O)ccn2N([C@H]2c3ccc(F)cc3COc3ccccc32)[C@@H]2COCCN12	half-life at 1 µM	h	2.45
O=C1c2c(O)c(=O)ccn2N([C@@H]2c3ccccc3SCc3c2ccc(F)c3F)[C@@H]2COCCN12 [BALOXAVIR]	half-life at 1 µM	h	2.68
O=C(O)Cc1ccccc1Nc1c(Cl)cccc1Cl [DICLOFENAC]	half-life at 1 µM	h	0.672
O=C1c2c(O)c(=O)ccn2N([C@@H]2c3ccccc3OCc3c(Cl)cccc32)[C@@H]2COCCN12	half-life at 1 µM	h	2.27

---

# assay-text: Cmax in CD-1 mouse at 1 mg/kg, iv measured upto 24 hrs by LC-MS/MS analysis
# Format: ADME, organism-based
# protocol-conditions: in vivo
outcome-measure: Cmax (ng/mL)

smiles-repr	numeric-result
O=C1c2c(O)c(=O)ccn2N([C@H]2c3ccc(F)cc3COc3ccccc32)[C@@H]2COCCN12	211
O=C1c2c(O)c(=O)ccn2N([C@@H]2c3ccccc3OCc3c(Cl)cccc32)[C@@H]2COCCN12	258
O=C1c2c(O)c(=O)ccn2N([C@@H]2c3ccccc3SCc3c2ccc(F)c3F)[C@@H]2COCCN12	205

---

# Test system: Influenza B virus
# assay-text: Antiviral activity against Influenza B virus IBV/Lee/40 infected in dog MDCK cells assessed as reduction in cytopathic effect incubated for 2 days by TCID50 method
# Type: functional, organism-based
# protocol-conditions: IBV/Lee/40, MDCK, 48 h
outcome-measure: EC50 (nM)

smiles-repr	output-unit	numeric-result
O=C1c2c(O)c(=O)ccn2N([C@H]2c3ccc(F)cc3COc3ccccc32)[C@@H]2COCCN12	nM	2.12
O=C1c2c(O)c(=O)ccn2N([C@@H]2c3ccccc3OCc3c(Cl)cccc32)[C@@H]2COCCN12	nM	2.32
O=C1c2c(O)c(=O)ccn2N([C@@H]2c3ccccc3SCc3c2ccc(F)c3F)[C@@H]2COCCN12	nM	2.02

---

The reader will find reported Cmax values listed item by item below.
# assay-text: Cmax in CD-1 mouse at 15 mg/kg, po measured upto 24 hrs by LC-MS/MS analysis
# Assay type: ADME, organism-based
# protocol-conditions: in vivo

molecule	Cmax
O=C1c2c(O)c(=O)ccn2N([C@@H]2c3ccccc3SCc3c2ccc(F)c3F)[C@@H]2COCCN12 [BALOXAVIR]	523 ng/mL
O=C1c2c(O)c(=O)ccn2N([C@H]2c3ccc(F)cc3COc3ccccc32)[C@@H]2COCCN12	548 ng/mL
O=C1c2c(O)c(=O)ccn2N([C@@H]2c3ccccc3OCc3c(Cl)cccc32)[C@@H]2COCCN12	222 ng/mL

---

# assay-text: Half life in CD-1 mouse at 15 mg/kg, po measured upto 24 hrs by LC-MS/MS analysis
# Type: ADME, organism-based
# protocol-conditions: in vivo
The reader will find reported half-life values listed item by item below.

smiles-repr	half-life [min]
O=C1c2c(O)c(=O)ccn2N([C@@H]2c3ccccc3OCc3c(Cl)cccc32)[C@@H]2COCCN12	267
O=C1c2c(O)c(=O)ccn2N([C@H]2c3ccc(F)cc3COc3ccccc32)[C@@H]2COCCN12	170
O=C1c2c(O)c(=O)ccn2N([C@@H]2c3ccccc3SCc3c2ccc(F)c3F)[C@@H]2COCCN12	227

---

# assay-text: Selectivity index, ratio of CC50 for cytotoxicty against MDCK cells to EC50 for antiviral activity against Influenza A virus H3N2 (A/Aichi/2/68) infected in dog MDCK cells
# Assay type: toxicity, cell-based
# protocol-conditions: read-out: Selectivity Index

smiles-repr	selectivity ratio
O=C1c2c(O)c(=O)ccn2N([C@H]2c3ccccc3COc3c2ccc(F)c3F)[C@@H]2COCCN12	6460
CCOC(=O)Cc1ccc2c(c1)[C@H](N1[C@@H]3COCCN3C(=O)c3c(O)c(=O)ccn31)c1ccccc1CO2	> 1390
O=C1c2c(O)c(=O)ccn2N([C@H]2c3ccccc3OCc3c(F)cccc32)[C@@H]2COCCN12	> 6390
O=C1c2c(O)c(=O)ccn2N([C@@H]2c3ccccc3COc3cc(C(F)(F)F)ccc32)[C@@H]2COCCN12	> 2910
N#Cc1ccc2c(c1)COc1ccccc1[C@@H]2N1[C@@H]2COCCN2C(=O)c2c(O)c(=O)ccn21	> 5690
O=C1c2c(O)c(=O)ccn2N([C@@H]2c3ccc(F)cc3COc3ccccc32)[C@@H]2COCCN12	14100
O=C1c2c(O)c(=O)ccn2N([C@H]2c3ccccc3COc3cc(C(F)(F)F)ccc32)[C@@H]2COCCN12	> 2010
O=C1c2c(O)c(=O)ccn2N([C@@H]2c3ccccc3COc3c2ccc(F)c3F)[C@@H]2COCCN12	13500
CCOC(=O)Cc1ccc2c(c1)[C@@H](N1[C@@H]3COCCN3C(=O)c3c(O)c(=O)ccn31)c1ccccc1CO2	> 71
N#Cc1ccc2c(c1)COc1ccccc1[C@H]2N1[C@@H]2COCCN2C(=O)c2c(O)c(=O)ccn21	> 5300
O=C1c2c(O)c(=O)ccn2N([C@H]2c3ccc(F)cc3COc3ccccc32)[C@@H]2COCCN12	> 64100
O=C1c2c(O)c(=O)ccn2N([C@@H]2c3ccccc3COc3cc(F)ccc32)[C@@H]2COCCN12	> 12800
O=C1c2c(O)c(=O)ccn2N([C@@H]2c3ccccc3OCc3c(Cl)cccc32)[C@@H]2COCCN12	31600
O=C1c2c(O)c(=O)ccn2N([C@H]2c3ccccc3COc3ccccc32)[C@@H]2COCCN12	> 47200
O=C1c2c(O)c(=O)ccn2N([C@@H]2c3ccccc3OCc3c(F)cccc32)[C@@H]2COCCN12	> 5940
O=C1c2c(O)c(=O)ccn2N([C@H]2c3ccccc3OCc3c2ccc(F)c3F)[C@@H]2COCCN12	15900

---

# assay-text: Cytotoxicity against dog MDCK cells assessed as reduction in cell viability incubated for 2 days by CCK-8 assay
# Assay type: toxicity, cell-based, Canis lupus familiaris
# protocol-conditions: time 2 day
The reader will find reported CC50 at 48 h values listed item by item below.
outcome-measure: CC50 at 48 h (µM)

smiles-repr	outcome-measure	limit-qualifier	numeric-result
N#Cc1ccc2c(c1)COc1ccccc1[C@@H]2N1[C@@H]2COCCN2C(=O)c2c(O)c(=O)ccn21	CC50 at 48 h	>	50
O=C1c2c(O)c(=O)ccn2N([C@H]2c3ccc(F)cc3COc3ccccc32)[C@@H]2COCCN12	CC50 at 48 h	>	50
O=C1c2c(O)c(=O)ccn2N([C@@H]2c3ccccc3COc3ccccc32)[C@@H]2COCCN12	CC50 at 48 h	>	50
O=C1c2c(O)c(=O)ccn2N([C@H]2c3ccccc3OCc3c(Cl)cccc32)[C@@H]2COCCN12	CC50 at 48 h	=	15.6
O=C1c2c(O)c(=O)ccn2N([C@@H]2c3ccccc3OCc3c2ccc(F)c3F)[C@@H]2COCCN12	CC50 at 48 h	=	19.1
O=C1c2c(O)c(=O)ccn2N([C@@H]2c3ccccc3COc3c2ccc(F)c3F)[C@@H]2COCCN12	CC50 at 48 h	=	22.1
O=C1c2c(O)c(=O)ccn2N([C@@H]2c3ccccc3OCc3c(Cl)cccc32)[C@@H]2COCCN12	CC50 at 48 h	=	24.7
CCOC(=O)Cc1ccc2c(c1)[C@@H](N1[C@@H]3COCCN3C(=O)c3c(O)c(=O)ccn31)c1ccccc1CO2	CC50 at 48 h	>	50
